Test system: B16-F10 cells
ASSAY SUMMARY: Cell proliferation assay (CellTiter-Glo) in B16-F10 cells with IFN-gamma
Type: cell-based
RUN CONDITIONS: 120 h, mouse IFN-gamma 10 ng/mL, read-out: PTPN2 Prolif 5d B16F10 EC50
In plain terms, low EC50, meaning strictly below 100 nM, gives Yes, and everything else gives No.

Some entries whose results are on file:
COMPOUND: O=C1CN(c2c(O)cc(CNc3cccc(C(F)F)n3)cc2F)S(=O)(=O)N1 [EXAMPLE 42]
ASSIGNED LABEL: No

COMPOUND: Cc1cnc(NCc2cc(O)c(N3CC(=O)NS3(=O)=O)c(F)c2)cc1C [EXAMPLE 28]
ASSIGNED LABEL: No

COMPOUND: Cc1cc(C)nc(NCc2cc(O)c(N3CC(=O)NS3(=O)=O)c(F)c2)c1 [EXAMPLE 5]
ASSIGNED LABEL: Yes

Problem: Field: below-cutoff. Rule: recorded EC50 strictly less than 100 nM. Subject: Cc1cnc(NCc2cc(O)c(N3CC(=O)NS3(=O)=O)c(F)c2)cc1F [EXAMPLE 33]
Solution: No

Problem: Please check: EC50 for COc1cc(NCc2cc(O)c(N3CC(=O)NS3(=O)=O)c(F)c2)ncc1C [EXAMPLE 9] , strictly under 100 nM or not?
Solution: No

* * *

Below, each entry is listed alongside its reported IC50.
TEST SYSTEM: PTPN2 (Homo sapiens (Human), UniProt P17706)
Sequence (P17706 whole entry): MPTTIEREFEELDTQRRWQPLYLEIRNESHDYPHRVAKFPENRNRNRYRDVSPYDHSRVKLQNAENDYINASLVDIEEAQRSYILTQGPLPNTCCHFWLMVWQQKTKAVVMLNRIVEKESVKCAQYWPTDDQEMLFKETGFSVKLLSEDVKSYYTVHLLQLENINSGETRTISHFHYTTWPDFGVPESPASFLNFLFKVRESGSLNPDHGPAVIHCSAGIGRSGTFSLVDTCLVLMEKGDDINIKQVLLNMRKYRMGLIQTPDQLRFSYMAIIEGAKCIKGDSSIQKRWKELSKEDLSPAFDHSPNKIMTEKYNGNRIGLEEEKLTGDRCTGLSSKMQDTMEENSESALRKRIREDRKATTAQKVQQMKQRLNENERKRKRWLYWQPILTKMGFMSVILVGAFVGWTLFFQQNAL
ASSAY SUMMARY: PhosphoSens assay (PTPN2 BCHEM)
Type: biochemical
RUN CONDITIONS: substrate AQT0264 20 μM, PTPN2 150 pM
Report as a plain number; the unit nM is understood.

SMILES DATA: CCc1ccnc(NCc2cc(O)c(N3CC(=O)NS3(=O)=O)c(F)c2)c1
VALUE UNITS: nM
IC50: 2
//
SMILES DATA: Cc1cccnc1NCc1cc(O)c(N2CC(=O)NS2(=O)=O)c(F)c1
VALUE UNITS: nM
IC50: 110

Continue with the next molecule.
Problem: Please look up its IC50: Cc1cnc(NCc2cc(O)c(N3CC(=O)NS3(=O)=O)c(F)c2)c(C)c1
Solution: 100
